Entries and their melting point
Residues, ends and D or L forms follow the SMILES beside them. *: point of attachment. Boc = CC(C)(C)OC(=O)*

| MOLECULE | melting point |
| --- | --- |
| COC(=O)C(CN(c1ccccc1)c1ccccn1)N(C(=O)OC(C)(C)C)C(=O)OC(C)(C)C (centres undefined) | 103 °C |
| COC(=O)C(CCSC)NC(=O)C(CC(C)C)NC(=O)CNC(=O)C(NC(=O)C(Cc1ccccc1)NC(=O)C(C)NC(=O)OC(C)(C)C)C(C)C (centres undefined) (Boc-AFVGLM-OMe; configuration not given here) | 252 to 254 °C |
| CCOCc1nc2c(N)nc(C)cc2n1CCOCc1ccccc1 | 127 to 128 °C |
| CCCN(C(C)C)[C@H]1COc2c(F)ccc(C(N)=O)c2C1 | 139 to 140 °C |
